Molecular target: Abl (T315I) (Homo sapiens, UniProt P00519, T315I)
Experiment: Abl kinase activity assay (fluorescent ELISA, AblTide substrate)
Type: biochemical
OBSERVABLE: inhibition at 10 µM (%)
Answer format: numeric, % implied, no suffix.

Some entries whose results are on file:
>>> measured_number("Cc1ccc(-c2[nH][nH]c(=O)c2-c2cn3c4c(cccc24)CCC3)cc1")
83
>>> measured_number("CC(C)c1[nH][nH]c(=O)c1-c1cn2c3c(cccc13)CCC2")
8
>>> measured_number("O=c1[nH][nH]c(C2CCCC2)c1-c1cn2c3c(cccc13)CCC2")
77
>>> measured_number("O=c1[nH][nH]c(-c2ccccc2Cl)c1-c1cn2c3c(cccc13)CCC2")
20

Can you share its inhibition at 10 µM? I mean this compound: CC(C)(C)Cc1[nH][nH]c(=O)c1-c1cn2c3c(cccc13)CCC2 8

----------
Molecular target: FGFR2 (N549H) (Homo sapiens, UniProt P21802, N549H)
Construct: purchased Millipore 14-742
Sequence (P21802 22-821 N549H): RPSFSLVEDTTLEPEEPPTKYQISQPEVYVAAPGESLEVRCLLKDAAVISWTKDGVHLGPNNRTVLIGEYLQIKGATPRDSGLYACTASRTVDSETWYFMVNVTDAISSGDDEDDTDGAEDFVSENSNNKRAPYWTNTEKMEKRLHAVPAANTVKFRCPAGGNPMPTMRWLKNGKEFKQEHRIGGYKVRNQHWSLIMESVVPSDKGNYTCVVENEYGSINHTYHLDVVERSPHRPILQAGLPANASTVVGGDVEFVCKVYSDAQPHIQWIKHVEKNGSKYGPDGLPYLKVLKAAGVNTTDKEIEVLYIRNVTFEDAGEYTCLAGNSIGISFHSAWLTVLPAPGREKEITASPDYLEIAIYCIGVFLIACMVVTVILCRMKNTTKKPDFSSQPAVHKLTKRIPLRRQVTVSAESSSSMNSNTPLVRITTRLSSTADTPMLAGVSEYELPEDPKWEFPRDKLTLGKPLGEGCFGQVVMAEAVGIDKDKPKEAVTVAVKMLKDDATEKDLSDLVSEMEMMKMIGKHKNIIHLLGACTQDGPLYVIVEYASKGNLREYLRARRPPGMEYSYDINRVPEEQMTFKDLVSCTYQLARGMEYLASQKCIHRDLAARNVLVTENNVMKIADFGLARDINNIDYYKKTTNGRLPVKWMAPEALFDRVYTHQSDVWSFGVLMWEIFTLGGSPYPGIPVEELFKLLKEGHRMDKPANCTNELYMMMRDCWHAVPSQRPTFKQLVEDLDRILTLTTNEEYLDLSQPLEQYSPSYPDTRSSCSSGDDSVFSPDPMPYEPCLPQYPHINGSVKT
Assay: FGFR2 kinase activity assay (fluorescent ELISA)
Assay type: biochemical
Experimental: The enzymatic assays described herein are conducted according to the following procedures from commercially available reagents. […] Phosphorylated peptide is detected by adding anti-phospho-tyrosine antibody (Cell Signaling, Cat. #9411, diluted 1:3000) to the streptavidin-coated plate. […] The reading of the 595 nm signal is done on the Perkin Elmer Envision system. […] Thus, the inhibition of FGFR2 by compounds is monitored by the decrease in the 595 nm fluorescent signal.
OBSERVABLE: inhibition at 30 µM (%)
Answer format: numeric, % implied, no suffix.

>>> measured_number("O=c1[nH][nH]c(-c2cccc(F)c2)c1-c1cn2c3c(cccc13)CCC2")
75
>>> measured_number("NC1CCC(n2nnnc2-c2cn3c4c(cccc24)CCC3)CC1 (centres unmarked)")
91
>>> measured_number("O=C(Nc1ccccc1OC(F)F)N1CCC(CNc2nccc(-c3cn4c5c(cccc35)CCC4)n2)CC1")
55
>>> measured_number("O=c1[nH][nH]c(-c2ccccc2Cl)c1-c1cn2c3c(cccc13)CCC2")
33
>>> measured_number("CC(=O)c1ccccc1NC(=O)N1CCC(CNc2nccc(-c3cn4c5c(cccc35)CCC4)n2)CC1")
52
>>> measured_number("CCOc1ccc2ccccc2c1-c1[nH][nH]c(=O)c1-c1cn2c3c(cccc13)CCC2")
41

Can you share its inhibition at 30 µM? I mean this compound: O=c1[nH][nH]c(-c2ccccc2Br)c1-c1cn2c3c(cccc13)CCC2 45

Can you share its inhibition at 30 µM? I mean this compound: O=C(Nc1cccc(Cl)c1)N1CCC(CNc2nccc(-c3cn4c5c(cccc35)CCC4)n2)CC1 58

----------
In this section we review reported inhibition at 30 µM values for a set of molecules.
Molecular target: FGFR2 (N549H) (Homo sapiens, UniProt P21802, N549H)
Construct: purchased Millipore 14-742
Experiment: FGFR2 kinase activity assay (fluorescent ELISA)
Assay type: biochemical
Answer format: numeric, % implied, no suffix.

>>> measured_number("O=C(Nc1ccccc1)N1CCC(CNc2nccc(-c3cn4c5c(cccc35)CCC4)n2)CC1")
66

Can you share its inhibition at 30 µM? I mean this molecule: O=C(NCc1ccccc1)N1CCC(CNc2nccc(-c3cn4c5c(cccc35)CCC4)n2)CC1 60

Can you share its inhibition at 30 µM? I mean this molecule: COc1ccc(NC(=O)N2CCC(CNc3nccc(-c4cn5c6c(cccc46)CCC5)n3)CC2)c(OC)c1 48

----------
Biological target: Abl (T315I) (Homo sapiens, UniProt P00519, T315I)
Test: Abl kinase activity assay (fluorescent ELISA, AblTide substrate)
Type: biochemical
OBSERVABLE: inhibition at 10 µM (%)
Answer format: numeric, % implied, no suffix.

Some entries whose results are on file:
>>> measured_number("O=c1[nH][nH]c(-c2ccc(Cl)cc2)c1-c1cn2c3c(cccc13)CCC2 [Compound 11]")
13
>>> measured_number("O=c1[nH][nH]c(-c2cc3ccccc3s2)c1-c1cn2c3c(cccc13)CCC2 [Compound 12]")
53
>>> measured_number("COc1ccc(-c2[nH][nH]c(=O)c2-c2cn3c4c(cccc24)CCC3)cc1 [Compound 18]")
9
>>> measured_number("O=c1[nH][nH]c(-c2cn3c4c(cccc24)CCC3)c1-c1c[nH]c2ccccc12 [Compound 4]")
63
>>> measured_number("O=c1[nH][nH]c(-c2ccc(Cl)cc2Cl)c1-c1cn2c3c(cccc13)CCC2 [Compound 17]")
81
>>> measured_number("O=c1[nH][nH]c(-c2ccccc2Br)c1-c1cn2c3c(cccc13)CCC2 [Compound 20]")
87
>>> measured_number("CCOc1ccc2ccccc2c1-c1[nH][nH]c(=O)c1-c1cn2c3c(cccc13)CCC2 [Compound 22]")
11
>>> measured_number("O=c1[nH][nH]c(-c2ccccc2)c1-c1cn2c3c(cccc13)CCC2 [Compound 10]")
25
>>> measured_number("O=c1[nH][nH]c(-c2ccc3ccccc3c2)c1-c1cn2c3c(cccc13)CCC2 [Compound 13]")
37

Now take the following molecule into account.
Can you share its inhibition at 10 µM? I mean this molecule: O=c1[nH][nH]c(-c2cccc(F)c2)c1-c1cn2c3c(cccc13)CCC2 [Compound 21] 79
